Target: T1, human amylin receptor (human calcitonin receptor + human RAMP3) (human) (UniProt P30988)
T1 sequence (looked up) 1: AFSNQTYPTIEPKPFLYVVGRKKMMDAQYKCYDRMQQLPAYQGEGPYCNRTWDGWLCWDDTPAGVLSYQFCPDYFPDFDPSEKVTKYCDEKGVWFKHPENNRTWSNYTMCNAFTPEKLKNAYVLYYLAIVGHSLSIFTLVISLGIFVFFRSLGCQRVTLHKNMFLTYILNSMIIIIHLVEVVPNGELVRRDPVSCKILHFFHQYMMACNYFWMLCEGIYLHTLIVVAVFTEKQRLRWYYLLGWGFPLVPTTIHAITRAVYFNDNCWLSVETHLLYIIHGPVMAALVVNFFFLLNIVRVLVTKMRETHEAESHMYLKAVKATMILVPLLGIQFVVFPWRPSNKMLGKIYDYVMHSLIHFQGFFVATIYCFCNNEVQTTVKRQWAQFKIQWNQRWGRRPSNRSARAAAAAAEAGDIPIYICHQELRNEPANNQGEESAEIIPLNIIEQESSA
T1 sequence (looked up) 2: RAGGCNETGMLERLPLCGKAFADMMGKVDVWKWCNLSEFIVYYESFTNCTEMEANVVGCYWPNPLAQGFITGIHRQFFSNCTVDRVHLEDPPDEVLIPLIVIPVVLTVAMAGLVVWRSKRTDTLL
Assay: whole-cell competition vs 125I-rat amylin (Assay Va)
Numbered stars: 1 amine (or outer) side, 2 acyl side, 3 side chain; on linkers, the order of the positions; unused ones are H or OH. Ends that are not written are not given here. * marks the point of attachment. C20 diacid = O=C(O)CCCCCCCCCCCCCCCCCCC(=O)*; C18 diacid = O=C(O)CCCCCCCCCCCCCCCCC(=O)*; γGlu = O=C(O)[C@H](CCC(=O)[*:2])N[*:1]; AEEA = NCCOCCOCC(=O)O
Quantity: IC50 (nM)

{C20 diacid-γGlu-AEEA-AEEA-AEEA}-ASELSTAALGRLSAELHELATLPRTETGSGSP-NH2 [[N-terminal(C20 diacid-gGlu-3xOEG), des1, 30S, 31G]mimylin]: 0.432

1: {C18 diacid-γGlu}-ASEVSTAVLGRLSAELHELATLPRTETGSGSP-NH2 [[N-terminal(C18 diacid-gGlu), des1, 5V, 9V, 30S, 31G]mimylin]
2: {C20 diacid-γGlu}-ASGLSTATLGRLSQELHELQTYPRTETGSGTY-NH2 [[N-terminal(C20 diacid-gGlu), des1, 4G, 9T, 15Q, 21Q, 23Y, 30S, 31G, 32T, 33Y]mimylin]
3: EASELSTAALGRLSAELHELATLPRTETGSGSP-NH2 [[30S, 31G]mimylin]
4: {C20 diacid-γGlu}-ASELSTAALGRLSAELHELATYPRTETGSGSY-OH [[N-terminal(C20 diacid-gGlu), des1, 23Y, 30S, 31G, 33Y, C-terminal(-)]mimylin]
Exercise: Form: Sort by [IC50] Order [ ascending ] Rank them, then answer with their labels in that order.
Key: 2, 3, 1, 4
(2: 0.079 nM, 3: 0.469 nM, 1: 0.812 nM, 4: 92 nM)
